- target.or.test.system: UniProt P20309
- Sequence (P20309 whole entry): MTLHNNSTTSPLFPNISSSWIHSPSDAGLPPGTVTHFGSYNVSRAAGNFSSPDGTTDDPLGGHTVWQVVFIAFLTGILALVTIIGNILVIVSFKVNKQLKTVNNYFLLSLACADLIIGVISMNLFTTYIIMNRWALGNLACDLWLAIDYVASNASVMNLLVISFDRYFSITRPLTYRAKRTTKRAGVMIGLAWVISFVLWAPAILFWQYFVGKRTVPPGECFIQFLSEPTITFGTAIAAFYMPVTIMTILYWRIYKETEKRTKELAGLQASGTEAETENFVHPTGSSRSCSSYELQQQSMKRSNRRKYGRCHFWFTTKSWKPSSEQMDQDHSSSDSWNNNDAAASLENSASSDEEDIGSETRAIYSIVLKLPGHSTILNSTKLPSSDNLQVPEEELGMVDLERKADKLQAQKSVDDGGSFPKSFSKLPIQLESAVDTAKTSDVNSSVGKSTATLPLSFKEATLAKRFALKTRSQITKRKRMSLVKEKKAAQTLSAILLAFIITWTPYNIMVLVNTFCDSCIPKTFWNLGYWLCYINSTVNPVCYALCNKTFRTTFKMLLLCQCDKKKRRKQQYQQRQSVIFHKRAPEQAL
Mark each entry rule met if its Ki sits below 0.5 nM, and rule not met for all others.

O=c1ccc2c([C@@H](O)CNCCCCCCCCCN3CCC(Cn4cnc([C@](O)(c5ccccc5)C5CCCCC5)n4)CC3)ccc(O)c2[nH]1 | rule not met
O=c1ccc2c([C@@H](O)CNCCc3ccc(CCN4CCC(Cn5cnc(C(O)(c6ccccc6)c6ccccc6)n5)CC4)cc3)ccc(O)c2[nH]1 | rule not met
O=c1ccc2c([C@@H](O)CNCCCCCCCCCN3CCC(Cn4cnc(C(O)(c5ccccc5)C5CCCCC5)n4)CC3)ccc(O)c2[nH]1 (some centres unmarked) | rule not met

// switching to the query molecule
q: # TODO verify Ki < 0.5 nM strictly for this molecule: O=c1ccc2c([C@@H](O)CNCCc3ccc(CCN4CCC(Cn5cnc([C@](O)(c6ccccc6)C6CCCCC6)n5)CC4)cc3)ccc(O)c2[nH]1
a: rule met

----------
- target.or.test.system: human adrenergic β2 receptor (Homo sapiens)
- Sequence (P07550 whole entry): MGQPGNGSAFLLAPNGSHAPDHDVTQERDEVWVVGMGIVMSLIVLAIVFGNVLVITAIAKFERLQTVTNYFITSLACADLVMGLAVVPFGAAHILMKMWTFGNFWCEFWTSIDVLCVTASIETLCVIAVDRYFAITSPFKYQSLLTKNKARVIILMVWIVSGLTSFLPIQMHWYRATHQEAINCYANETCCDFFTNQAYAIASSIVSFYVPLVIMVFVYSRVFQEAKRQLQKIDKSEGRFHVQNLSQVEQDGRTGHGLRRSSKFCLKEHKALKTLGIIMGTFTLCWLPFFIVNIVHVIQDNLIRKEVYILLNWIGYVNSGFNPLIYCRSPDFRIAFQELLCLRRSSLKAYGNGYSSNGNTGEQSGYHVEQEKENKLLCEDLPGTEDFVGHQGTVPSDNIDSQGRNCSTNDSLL
- experimental.details: hβ2 cAMP assay: whole cell cAMP assay in CHO cells expressing the hβ2 receptor
- Assay type: cell-based
- test.context: CHO cells recombinantly expressing human β2 receptor; agonist efficacy; 100 nM Formoterol control
measure: Emax (%)
Field: numeric (%). Do not append units.

O=c1ccc2c([C@@H](O)CNCCCCCCCCCN3CCC(Cn4cnc(C(O)(c5ccccc5)c5ccccc5)n4)CC3)ccc(O)c2[nH]1 | 90

q: May I ask what Emax has been recorded for O=c1ccc2c([C@@H](O)CNCCCCCCCCCN3CCC(Cn4cnc(C(O)(c5ccccc5)C5CCCCC5)n4)CC3)ccc(O)c2[nH]1 (some centres unmarked) ?
a: 91

q: May I ask what Emax has been recorded for O=c1ccc2c([C@@H](O)CNCCc3ccc(CCN4CCC(Cn5cnc(C(O)(c6ccccc6)c6ccccc6)n5)CC4)cc3)ccc(O)c2[nH]1 ?
a: 95

q: May I ask what Emax has been recorded for O=c1ccc2c([C@@H](O)CNCCc3ccc(CCN4CCC(Cn5cnc([C@](O)(c6ccccc6)C6CCCCC6)n5)CC4)cc3)ccc(O)c2[nH]1 ?
a: 106

q: May I ask what Emax has been recorded for O=c1ccc2c([C@@H](O)CNCCCCCCCCCN3CCC(Cn4cnc([C@](O)(c5ccccc5)C5CCCCC5)n4)CC3)ccc(O)c2[nH]1 ?
a: 103

----------
- target.or.test.system: human adrenergic β2 receptor (Homo sapiens)
- experimental.details: hβ2 cAMP assay: whole cell cAMP assay in CHO cells expressing the hβ2 receptor
- test.context: CHO cells recombinantly expressing human β2 receptor; agonist potency
measure: EC50 (nM)
Field: numeric (nM). Do not append units.

Please review the following examples before continuing.
O=c1ccc2c([C@@H](O)CNCCCCCCCCCN3CCC(Cn4cnc(C(O)(c5ccccc5)C5CCCCC5)n4)CC3)ccc(O)c2[nH]1 (some centres unmarked) [Example 3] | 20.6
O=c1ccc2c([C@@H](O)CNCCc3ccc(CCN4CCC(Cn5cnc([C@](O)(c6ccccc6)C6CCCCC6)n5)CC4)cc3)ccc(O)c2[nH]1 [Example 2] | 21.6
O=c1ccc2c([C@@H](O)CNCCCCCCCCCN3CCC(Cn4cnc(C(O)(c5ccccc5)c5ccccc5)n4)CC3)ccc(O)c2[nH]1 [Example 4] | 13
O=c1ccc2c([C@@H](O)CNCCc3ccc(CCN4CCC(Cn5cnc(C(O)(c6ccccc6)c6ccccc6)n5)CC4)cc3)ccc(O)c2[nH]1 [Example 5] | 116

Next item in the queue.
q: May I ask what EC50 has been recorded for O=c1ccc2c([C@@H](O)CNCCCCCCCCCN3CCC(Cn4cnc([C@](O)(c5ccccc5)C5CCCCC5)n4)CC3)ccc(O)c2[nH]1 [Example 1] ?
a: 14
